This listing pairs compounds with measured MIC.
- System: methicillin-resistant S. aureus SA 3202
- procedure_summary: In vitro antibacterial evaluation (MIC), MRSA clinical isolate SA 3202
- Type: cell-based, Staphylococcus aureus
- setup_conditions: clinical isolate MRSA SA 3202; read-out: MIC MRSA SA 3202
assay_endpoint: MIC (µM)

>  <compound>
COc1ccc(NC(=O)c2ccc3ccccc3c2O)cc1C(F)(F)F [Compound 22]

>  <assay_endpoint>
MIC

>  <result_units>
µM

>  <relation_qualifier>
=

>  <observed_measurement>
5.53

$$$$
>  <compound>
Cc1cccc(NC(=O)c2ccc3ccccc3c2O)c1 [Compound 9]

>  <assay_endpoint>
MIC

>  <result_units>
µM

>  <relation_qualifier>
=

>  <observed_measurement>
462

$$$$
>  <compound>
Cc1ccccc1NC(=O)c1ccc2ccccc2c1O [Compound 8]

>  <assay_endpoint>
MIC

>  <result_units>
µM

>  <relation_qualifier>
=

>  <observed_measurement>
231

$$$$
>  <compound>
COc1cccc(NC(=O)c2ccc3ccccc3c2O)c1 [Compound 3]

>  <assay_endpoint>
MIC

>  <result_units>
µM

>  <relation_qualifier>
>

>  <observed_measurement>
873

$$$$

* * *

- Test system: human monocytic leukaemia THP-1 cells
- Format: cell-based
- setup_conditions: 30 µM highest concentration

>  <molecule>
COc1cc(F)cc(NC(=O)c2ccc3ccccc3c2O)c1

>  <Tox LD50>
>30 µM

$$$$
>  <molecule>
COc1cc(NC(=O)c2ccc3ccccc3c2O)cc(OC)c1

>  <Tox LD50>
>30 µM

$$$$
>  <molecule>
Cc1cc(C)cc(NC(=O)c2ccc3ccccc3c2O)c1

>  <Tox LD50>
>30 µM

$$$$
>  <molecule>
CC[C@@]1(O)C(=O)OCc2c1cc1n(c2=O)Cc2cc3ccccc3nc2-1 [camptothecin, reference compound]

>  <Tox LD50>
0.16 ± 0.07 µM

$$$$
>  <molecule>
Cc1ccc(C)c(NC(=O)c2ccc3ccccc3c2O)c1

>  <Tox LD50>
>30 µM

$$$$

* * *

This listing pairs compounds with measured MIC.
- System: methicillin-resistant S. aureus SA 3202
- procedure_summary: In vitro antibacterial evaluation (MIC), MRSA clinical isolate SA 3202
- Assay type: cell-based, Staphylococcus aureus
- setup_conditions: clinical isolate MRSA SA 3202; read-out: MIC MRSA SA 3202
assay_endpoint: MIC (µM)

>  <compound>
COc1cccc(C)c1NC(=O)c1ccc2ccccc2c1O [Compound 16]

>  <relation_qualifier>
>

>  <observed_measurement>
832

$$$$
>  <compound>
COc1ccc([N+](=O)[O-])cc1NC(=O)c1ccc2ccccc2c1O [Compound 19]

>  <relation_qualifier>
=

>  <observed_measurement>
756

$$$$
>  <compound>
COc1cc(NC(=O)c2ccc3ccccc3c2O)cc(OC)c1OC [Compound 7]

>  <relation_qualifier>
=

>  <observed_measurement>
724

$$$$
>  <compound>
COc1ccc(Cl)c(NC(=O)c2ccc3ccccc3c2O)c1 [Compound 24]

>  <relation_qualifier>
=

>  <observed_measurement>
781

$$$$
>  <compound>
COc1ccc(OC)c(NC(=O)c2ccc3ccccc3c2O)c1 [Compound 5]

>  <relation_qualifier>
=

>  <observed_measurement>
197

$$$$
>  <compound>
COc1cc([N+](=O)[O-])ccc1NC(=O)c1ccc2ccccc2c1O [Compound 18]

>  <relation_qualifier>
=

>  <observed_measurement>
756

$$$$
>  <compound>
Cc1cccc(C)c1NC(=O)c1ccc2ccccc2c1O [Compound 12]

>  <relation_qualifier>
=

>  <observed_measurement>
110

$$$$
>  <compound>
COc1ccc(C)cc1NC(=O)c1ccc2ccccc2c1O [Compound 15]

>  <relation_qualifier>
>

>  <observed_measurement>
832

$$$$
>  <compound>
COc1ccc(C)c(NC(=O)c2ccc3ccccc3c2O)c1 [Compound 17]

>  <relation_qualifier>
=

>  <observed_measurement>
208

$$$$
>  <compound>
Cc1ccc(C(F)(F)F)cc1NC(=O)c1ccc2ccccc2c1O [Compound 25]

>  <relation_qualifier>
=

>  <observed_measurement>
741

$$$$
